Target Entity: Receptor-interacting serine/threonine-protein kinase 3 (Homo sapiens, UniProt Q9Y572)
Sequence (Q9Y572 whole entry): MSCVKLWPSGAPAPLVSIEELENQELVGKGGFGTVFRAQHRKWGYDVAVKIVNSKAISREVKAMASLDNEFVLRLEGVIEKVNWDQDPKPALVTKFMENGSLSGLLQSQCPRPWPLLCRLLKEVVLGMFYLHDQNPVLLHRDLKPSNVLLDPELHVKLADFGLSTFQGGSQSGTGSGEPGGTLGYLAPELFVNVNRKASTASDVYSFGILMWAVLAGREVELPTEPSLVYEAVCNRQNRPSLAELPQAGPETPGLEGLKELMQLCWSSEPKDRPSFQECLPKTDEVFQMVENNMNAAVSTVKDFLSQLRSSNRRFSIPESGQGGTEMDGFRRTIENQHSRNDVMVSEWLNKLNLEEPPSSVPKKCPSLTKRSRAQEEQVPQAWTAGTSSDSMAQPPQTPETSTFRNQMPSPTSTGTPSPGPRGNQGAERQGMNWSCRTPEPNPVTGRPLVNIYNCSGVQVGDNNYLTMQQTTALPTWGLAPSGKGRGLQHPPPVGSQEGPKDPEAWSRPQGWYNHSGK
Assay Notes: Inhibition of human RIPK3 using MBP as substrate by [gamma33-ATP] based radiometric assay
Observation Type: pEC50
Answers are plain numbers, as −log10 of the molar value.

IN: For the molecule Cc1ccc(Oc2ccnc3cc(-c4cnn(C5CCNCC5)c4)ccc23)cc1 , what pEC50 is on record?
OUT: 7.68

----------
Target Entity: CYP1A2 (Homo sapiens, UniProt P05177)
Sequence (P05177 whole entry): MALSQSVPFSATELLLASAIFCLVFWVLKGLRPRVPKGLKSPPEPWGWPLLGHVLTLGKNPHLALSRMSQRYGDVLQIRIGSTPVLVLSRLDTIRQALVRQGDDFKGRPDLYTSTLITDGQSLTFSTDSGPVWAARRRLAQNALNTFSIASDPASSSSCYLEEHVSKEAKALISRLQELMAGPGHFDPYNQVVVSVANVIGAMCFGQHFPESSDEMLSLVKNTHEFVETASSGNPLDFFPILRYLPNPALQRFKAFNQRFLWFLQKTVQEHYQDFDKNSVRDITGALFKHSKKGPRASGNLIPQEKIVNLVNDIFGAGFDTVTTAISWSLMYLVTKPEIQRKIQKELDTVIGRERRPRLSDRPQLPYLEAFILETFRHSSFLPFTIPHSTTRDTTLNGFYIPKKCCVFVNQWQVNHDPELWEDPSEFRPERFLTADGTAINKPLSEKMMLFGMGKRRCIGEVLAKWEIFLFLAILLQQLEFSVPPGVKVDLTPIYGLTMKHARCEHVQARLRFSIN
Assay Notes: Inhibition of CYP1A2 (unknown origin) at 10 uM
Type: ADME
Observation Type: inhibition at 10 µM

IN: I am curious: what inhibition at 10 µM value has been reported for Cl.O=S1(=O)C=C(C2CC2)c2cc3nccc(Nc4ccc5scnc5c4)c3cc21 ?
OUT: < 10%
